- Test system: A498 renal
- ASSAY DETAILS: NCI-60 one-dose screen, 48 h
- PARTICULARS: 10 µM unless noted
Compounds without any hit were thinned out: in the full panel of roughly 83,000, 20% have a hit. Activity calls are given as the source filed them. How the source made its calls: active means growth percent below 10; inactive means the rest.
Entry note: the call must match one of active, inactive

Consider the worked cases shown below.
[
  {
    "COMPOUND": "CN(C)CCCC1(c2ccc(F)cc2)OCc2cc(-c3cc4ccccc4s3)ccc21 (stereo not given)",
    "LABEL CLASS": "inactive"
  },
  {
    "COMPOUND": "COC(=O)CCC/C=C\\C[C@H]1C=CC(=O)/C1=C/C[C@@H](O)C/C=C\\CC(F)(F)F",
    "LABEL CLASS": "inactive"
  },
  {
    "COMPOUND": "O=C(CC(=O)Nc1cccc(C(=O)O)c1)Nc1cccc(C(=O)O)c1",
    "LABEL CLASS": "inactive"
  }
]

Problem: Outcome? C=C1CC[C@@H]2[C@](C)(COC(C)=O)[C@H](OC(C)=O)CC[C@@]2(C)[C@@H]1CC(Nc1ccc(S(=O)(=O)NC(C)=O)cc1)C1=CCOC1=O (stereo not given in full)
Result: inactive

Problem: Outcome? Cc1ccc(-c2nc(-c3cn(C)c4ncccc34)cs2)cc1
Result: active

* * *

- Test system: T-47D breast
- ASSAY DETAILS: NCI-60 one-dose screen, 48 h
- PARTICULARS: 10 µM unless noted
This is part of a sample that, as a whole, favours compounds with a hit. Of some 83,000 tested, about 20% had one in any assay. Active and inactive are the calls of the source. Rule for the calls: active = growth percent below 10; inactive = the rest.
Entry note: the call must match one of True (active), False (inactive)

Consider the worked cases shown below.
[
  {
    "COMPOUND": "CCN1C(=O)N(CC)C2C1NC(=S)N2/N=C/c1ccc(OC)cc1 (stereo not given)",
    "LABEL CLASS": "False"
  },
  {
    "COMPOUND": "CS(=O)(=O)Nc1cc(-c2ccc3ncc(C#N)c(Nc4ccc(F)c(Cl)c4)c3c2)cnc1Cl",
    "LABEL CLASS": "True"
  },
  {
    "COMPOUND": "OCCNCCNC(Cc1ccc(Cl)cc1)c1ccccc1 (stereo not given)",
    "LABEL CLASS": "False"
  },
  {
    "COMPOUND": "O=C(c1c[nH]c2ccccc12)c1n[nH]c(=S)n1-c1cccc(Br)c1",
    "LABEL CLASS": "False"
  },
  {
    "COMPOUND": "O=C(Nc1ccc(Cl)cc1)Oc1c(Cl)c(Cl)c(Cl)c(Cl)c1Cl",
    "LABEL CLASS": "False"
  },
  {
    "COMPOUND": "O=C1/C(=C/c2ccc(O)c(O)c2)COc2ccc(-c3ccccc3)cc21",
    "LABEL CLASS": "False"
  }
]

Problem: Outcome? Cc1ccc(C)c2c(C)c(C(=O)Nc3cccc(-n4cccn4)c3)oc12
Result: True

* * *

Reported growth values for a set of compounds
- System: SNB-19 CNS
- ASSAY DETAILS: NCI-60 one-dose screen, 48 h (100 = growth as untreated, 0 = no growth, -100 = all killed)
- PARTICULARS: 10 µM unless noted
This is part of a sample that, as a whole, favours compounds with a hit. Of some 83,000 tested, about 20% had one in any assay.
Write the value in % as a bare number.

Use these answered entries as a reference point.
[
  {
    "COMPOUND STRING": "CCNc1ccc(-c2nc3ccccc3n3cccc23)cc1",
    "UNITS": "%",
    "growth": 92.2
  },
  {
    "COMPOUND STRING": "Cc1cc2c(cc1C)N(C(=O)CCl)CC(=O)N2",
    "UNITS": "%",
    "growth": 88
  }
]

Next compound, please.
Problem: Name the recorded growth for CCN(CC)Cc1cc(Nc2ccnc3cc(Cl)ccc23)ccc1O .
Result: 88.7

* * *

- System: NCI-H23 lung
- ASSAY DETAILS: NCI-60 one-dose screen, 48 h
- PARTICULARS: 10 µM unless noted
The panel holds about 83,000 compounds, 20% with a hit somewhere; the sample as a whole holds those more often. Activity calls are given as the source filed them. How the source made its calls: active means growth percent below 10; inactive means the rest.
Entry note: the call must match one of active, inactive

Problem: Outcome? Cc1ccc(S(=O)(=O)c2nc(-c3ccccc3)oc2Sc2nc3ccccc3s2)cc1
Result: inactive

Problem: Outcome? N#CSc1c[nH]c2cccc(/C=C/C(=O)/C=C(O)/C=C/c3cccc4[nH]cc(SC#N)c34)c12
Result: active

Problem: Outcome? CN1CCN(CC(=O)Nc2ccc3ncnc(Nc4ccc(Oc5cccc(C(F)(F)F)c5)c(Cl)c4)c3c2)CC1
Result: inactive

* * *

- System: HS 578T breast
- ASSAY DETAILS: NCI-60 one-dose screen, 48 h
- PARTICULARS: 10 µM unless noted
Compounds without any hit were thinned out: in the full panel of roughly 83,000, 20% have a hit. Calls of active or inactive are those of the source. How the source made its calls: active means growth percent below 10; inactive means the rest.
Entry note: the call must match one of t = active, f = inactive

Consider the worked cases shown below.
[
  {
    "MOLECULE": "CCN(CC)CCCN1C(=O)c2c(c(C)c3c(oc4ccc(OC)cc43)c2C)C1=O",
    "TESTED TARGET": "HS 578T breast",
    "LABEL CLASS": "f"
  },
  {
    "MOLECULE": "O=C1c2cccc3cccc(c23)C(=O)N1C/C=C/c1ccc2c3c(cccc13)C(=O)N(CCO)C2=O",
    "TESTED TARGET": "HS 578T breast",
    "LABEL CLASS": "f"
  },
  {
    "MOLECULE": "O=C(NNC(=O)c1ccc(NC(=O)c2ccccn2)cc1)Nc1ccc2ccccc2c1",
    "TESTED TARGET": "HS 578T breast",
    "LABEL CLASS": "f"
  },
  {
    "MOLECULE": "COc1cc(/C=C2\\CN(S(=O)(=O)c3ccccc3)C/C(=C\\c3cc(CN4CCCCC4)c(O)c(OC)c3)C2=O)cc(CN2CCCCC2)c1O",
    "TESTED TARGET": "HS 578T breast",
    "LABEL CLASS": "t"
  }
]

Problem: Outcome? CCOC(=O)C1=C(C)C(Cl)=N/C1=C\c1[nH]c(Cl)c(C)c1C(=O)OCC
Result: f

Problem: Outcome? CN1CCN(CC(=O)Nc2ccc3ncnc(Nc4ccc(Oc5cccc(C(F)(F)F)c5)c(Cl)c4)c3c2)CC1
Result: t

Problem: Outcome? O=C(CCCCCCN1CC(=O)N2[C@H](c3ccc(Br)cc3)c3[nH]c4ccccc4c3C[C@@H]2C1=O)NO
Result: f

Problem: Outcome? Cc1ccc(-c2nc(SCc3nc4cc(Cl)c(Cl)cc4[nH]3)[nH]c(=O)c2C#N)cc1
Result: f

* * *

- Test system: NCI-H322M lung
- ASSAY DETAILS: NCI-60 one-dose screen, 48 h (100 = growth as untreated, 0 = no growth, -100 = all killed)
- PARTICULARS: 10 µM unless noted
- Procedure: Growth inhibition of the NCI-H322M human Non-Small Cell Lung tumor cell line is measured as a screen for anti-cancer activity. Cells are grown in 96 well plates and exposed to the test compound for 48 hours. Compounds are tested at a single concentration, which is 10^-5 M for most compounds. The reported endpoint is percent growth (GI% or GIPRCNT), where numbers from 0 - 100% represent growth inhibition, and numbers from -100% - 0 represent cell death. […]
The panel holds about 83,000 compounds, 20% with a hit somewhere; the sample as a whole holds those more often. Calls of active or inactive are those of the source. Rule for the calls: active = growth percent below 10; inactive = the rest.
ASSAY ENDPOINT: growth

Use these answered entries as a reference point.
[
  {
    "COMPOUND": "CCN1C(=O)N(CC)C2C1NN=c1s/c(=C3\\C(=O)N(CC(C)C)c4ccccc43)c(=O)n12 (stereo not drawn)",
    "growth": "58.1% (inactive)"
  },
  {
    "COMPOUND": "CC[C@]12C=CCN3CC[C@@]4(c5ccc(OC)cc5N(C)[C@H]4[C@@](O)(C(=O)OC)[C@@H]1OC(=O)CCC[P+](c1ccccc1)(c1ccccc1)c1ccccc1)[C@@H]32",
    "growth": "35.6% (inactive)"
  },
  {
    "COMPOUND": "O=C(C1=Cc2cc3ccccc3n2Cc2cnnn21)c1ccc(O)cc1",
    "growth": "89.4% (inactive)"
  }
]

Problem: Name the recorded growth for CCC1S/C(=N\N=C(\C)c2cc3cc(Cl)ccc3o2)N(c2ccccc2)C1=O (stereo not drawn) .
Result: 82.4% (inactive)

Problem: Name the recorded growth for COc1ccc(-c2nc(/C=C3\C(=O)N(C)c4ccccc43)c3ccccn23)cc1 .
Result: 88.3% (inactive)

Problem: Name the recorded growth for CCOC(=O)/C=C1\S/C(=N\Nc2cc(=O)[nH]c3ccccc23)N(c2ccccc2)C1=O .
Result: 101% (inactive)
